- protocolText: Human HepG2 cell viability assay in 384 well format
- Type: toxicity, cell-based
- Parameters: dose 125 nL, time 70.5 hour; concentration not given beside the values
- assayContext: HepG2 cells, read-out: Inhibition
observationType: cytotoxicity at 70.5 h (%)
Express it in %; write the number only.

I am curious: what cytotoxicity at 70.5 h value has been reported for COCCO[C@H]1CCN(C(=O)c2ccc[nH]2)[C@H]1Cc1ccncc1 ?
-3.06

Same question for COc1cc(C2(C(=O)N3CCN(CC(C)(C)O)CC3)CC2)ccc1C please.
-0.73

Same question for Cc1nc(CNCc2c(C)nn(C)c2N2CCOCC2)cs1 please.
-15.5

Same question for Cc1nc(N2CCCC2)ncc1-c1cc(O)nc(NCC2CCCO2)n1 (stereo unspecified) please.
-5.1

Same question for CN(Cc1ccc(C(N)=O)cc1)c1ccc(C(F)(F)F)cn1 please.
-2.07

Consider now this further compound.
I am curious: what cytotoxicity at 70.5 h value has been reported for N#Cc1cccc(CN2CCC3(CC2)CC(c2ccncc2)C(=O)N3)c1 (stereo unspecified) ?
-0.0024

###

- protocolText: Human HepG2 cell viability assay in 384 well format
- Assay type: toxicity, cell-based
- Design: dose 125 nL, time 70.5 hour; concentration not given beside the values
- assayContext: HepG2 cells, read-out: Inhibition
observationType: cytotoxicity at 70.5 h (%)
Express it in %; write the number only.

Consider the worked cases shown below.
I am curious: what cytotoxicity at 70.5 h value has been reported for Cc1nc(CN(C)C2CCN(CCCc3ccccc3)C2)no1 (stereo unspecified) ?
-2.23

Same question for Cc1cnn(CC2CCCN2CC(=O)Nc2cc(C)no2)c1 (stereo unspecified) please.
-3.79

Same question for OCC1(CC2CC2)CCCN(Cc2cnc(N3CCOCC3)nc2)C1 (stereo unspecified) please.
-5.42

Same question for CN1CCc2cc(C(=O)N(C)C)c(NCC3CC3)nc2CC1 please.
-1.63

Same question for Cn1ncc(C(=O)OCC2CC(=O)N(c3ccccc3)C2)c1C(F)F (stereo unspecified) please.
-9.29

New cases:
I am curious: what cytotoxicity at 70.5 h value has been reported for COc1ccccc1N1CCN(C(=O)CCn2nnnc2C)CC1(C)C ?
19.3

Same question for COc1ccc(CC(=O)N2CCCC(n3cccn3)C2)cc1F (stereo unspecified) please.
-6.84

Same question for CC(C)CCOCCNC(=O)Nc1cc(C(F)(F)F)c[nH]c1=O please.
-2.4

Same question for CN(CC(=O)NCc1ccccn1)CC1CCCN1c1cccnn1 (stereo unspecified) please.
0.56

Same question for O=C(NCC1CC1)Nc1cnc2cc(Cl)ccc2c1O please.
-1.93

Same question for O=C(NCCc1c[nH]cn1)C1CCCN(Cc2ccco2)C1 (stereo unspecified) please.
-1.6

Same question for Cc1n[nH]c(CCC(=O)N2CCOC(Cc3ccccc3)C2)c1C (stereo unspecified) please.
-7.3

Same question for Cn1cc(NS(=O)(=O)c2ccc(OC(F)(F)F)cc2)ccc1=O please.
18

Same question for Cc1csc(NC(=O)CN(C)CCOc2cccc(F)c2)n1 please.
15.2

###

- protocolText: Human HepG2 cell viability assay in 384 well format
- Type: toxicity, cell-based
- Set-up: dose 125 nL, time 70.5 hour; concentration not given beside the values
- assayContext: HepG2 cells, read-out: Inhibition
Entries annotated with measured cytotoxicity at 70.5 h
Express it in %; write the number only.

Consider the worked cases shown below.
I am curious: what cytotoxicity at 70.5 h value has been reported for Cc1cc2nccc(C3CCN(C(=O)c4ccccc4F)CC3)n2n1 ?
-4.04

Same question for CCn1ncc(Nc2[nH]cnc3nc(C)nc2-3)c1C please.
-6.65

New cases:
I am curious: what cytotoxicity at 70.5 h value has been reported for CCC[C@H]1CN(c2cncc(C(=O)N(C)C)n2)C[C@@H]1N(C)C ?
19.4

Same question for CCN1CCCc2cc(-c3cncn3C(C)CN3CCOCC3)ccc21 (stereo unspecified) please.
-4.04

Same question for CC(C(=O)N1CCOCC1)n1cc(Br)cn1 (stereo unspecified) please.
12.3

Same question for O=C(NCC1Cn2nnc(-c3ccncc3)c2CO1)c1ccsc1 (stereo unspecified) please.
1.38

###

Entries annotated with measured cytotoxicity at 70.5 h
- protocolText: Human HepG2 cell viability assay in 384 well format
- Format: toxicity, cell-based
- Design: dose 125 nL, time 70.5 hour; concentration not given beside the values
- assayContext: HepG2 cells, read-out: Inhibition
Express it in %; write the number only.

Consider the worked cases shown below.
I am curious: what cytotoxicity at 70.5 h value has been reported for CCCC(=O)N1CCC([C@@H]2C[C@H](C(F)(F)F)n3nc(C)cc3N2)CC1 ?
-6.51

Same question for Cc1cc(CN(C)C(=O)NCc2ccnc(OC3CCCC3)c2)no1 please.
-3.22

Same question for Cn1ccc(C(=O)N2CCN(Cc3ccccc3F)CC2)cc1=O please.
-0.663

New cases:
I am curious: what cytotoxicity at 70.5 h value has been reported for Cc1nn(C)cc1C(=O)NC(CC(C)C)C(=O)Nc1cc[nH]n1 (stereo unspecified) ?
12.6

Same question for CNC(=O)c1sc2ccccc2c1C1CCN(c2cc(C)nc(C)n2)C1 (stereo unspecified) please.
18.1

Same question for COCCN(C)C(C)Cc1ccccc1OC (stereo unspecified) please.
-11.8

Same question for CCOc1ccc2[nH]c(=O)c(CN3CCCC(CO)(CO)C3)cc2c1 please.
-4.6

Same question for O=C(NCc1cccs1)[C@]12COC[C@H]1CN(c1ncccn1)C2 please.
-3.55

Same question for CN(C)C(=O)CN(C)C(=O)c1csc(Br)c1 please.
13.6

Same question for CCCN1CCCN(C(=O)c2oc(C)nc2C)CC1 please.
30.9

Same question for CC(C)(C)C(O)CN1CCN(CC(=O)NC2CCOCC2)CC1 (stereo unspecified) please.
-7.28

###

- protocolText: Human HepG2 cell viability assay in 384 well format
- Format: toxicity, cell-based
- Design: dose 125 nL, time 70.5 hour; concentration not given beside the values
- assayContext: HepG2 cells, read-out: Inhibition
Entries annotated with measured cytotoxicity at 70.5 h
Express it in %; write the number only.

Consider the worked cases shown below.
I am curious: what cytotoxicity at 70.5 h value has been reported for O=C(CCC(=O)Nc1ccccc1)NCC(=O)c1ccc(F)cc1F ?
5.75

Same question for Cc1nc(CCN(C)C(=O)CCNC(=O)c2ccccc2F)no1 please.
-4.9

New cases:
I am curious: what cytotoxicity at 70.5 h value has been reported for Cc1cc(NC(=O)N(Cc2ccc(C#N)cc2)C(C)C)no1 ?
-13.2

Same question for COC(=O)CCNC(=O)C1CC(=O)N(C2CCCC2)C1 (stereo unspecified) please.
0.402

Same question for NC(=O)C1CCN(C(=O)NCc2csc(Br)c2)CC1 please.
-7.32

Same question for O=C1CO[C@@H]2CN(C(=O)CCc3ccccc3)C[C@H]2N1 please.
-5.06

Same question for Cc1nc(CN2CCCC(NCCOCC(F)(F)F)C2)no1 (stereo unspecified) please.
24.6

Same question for CN(CCCOc1ccccc1Cl)C(=O)CN1C[C@@H]2CC[C@H](CC1=O)N2 please.
-2.68

Same question for N#CC1(NC(=O)CN2CCC(c3ccnn3CCO)CC2)CCCC1 please.
-11.9

Same question for CCOC(=O)[C@@H]1[C@@H](c2ccccc2)CN2CCN(S(C)(=O)=O)C[C@H]12 please.
-6.56

Same question for Cc1cc(C)c2c(c1)C(NCc1c(C)nn(C)c1N(C)C)CCO2 (stereo unspecified) please.
3.6

###

Entries annotated with measured cytotoxicity at 70.5 h
- protocolText: Human HepG2 cell viability assay in 384 well format
- Type: toxicity, cell-based
- Parameters: dose 125 nL, time 70.5 hour; concentration not given beside the values
- assayContext: HepG2 cells, read-out: Inhibition
Express it in %; write the number only.

Consider the worked cases shown below.
I am curious: what cytotoxicity at 70.5 h value has been reported for CCOC1CCCN(C(=O)c2nn(-c3ccccc3F)cc2O)C1 (configuration not stated) ?
-3.95

Same question for O=C(CCC(=O)N1CCOCC1)NCc1cccnc1-n1cccn1 please.
1.46

Same question for Cc1noc([C@@]23CCO[C@@H]2CCN(C(=O)CN(C)C)C3)n1 please.
-0.0937

New cases:
I am curious: what cytotoxicity at 70.5 h value has been reported for O=C(COCc1ccccc1)N1CCN(c2ccc(Cl)cn2)CC1 ?
-4.29

###

Entries annotated with measured cytotoxicity at 70.5 h
- protocolText: Human HepG2 cell viability assay in 384 well format
- Format: toxicity, cell-based
- Design: dose 125 nL, time 70.5 hour; concentration not given beside the values
- assayContext: HepG2 cells, read-out: Inhibition
Just so you know, I need the unit written after the number.

Consider the worked cases shown below.
I am curious: what cytotoxicity at 70.5 h value has been reported for Cc1cn(CC(=O)NCC(=O)NC2CC2)c2ccccc12 ?
-0.742%

Same question for Cc1ccccc1C1CCN(C(=O)CCNC(=O)C(C)(C)C)C1 (stereo unspecified) please.
-1.33%

Same question for Cn1cccc1C(=O)N[C@H]1CN(Cc2ccoc2)[C@@H]2CCCO[C@H]12 please.
17.5%

Same question for COc1ccccc1CC(=O)N1CCCC(n2nc(C)nc2C)C1 (stereo unspecified) please.
-13%

Same question for Cn1cc(CN2CCCC23CCN(C(=O)c2ccccc2)CC3)cn1 please.
-11.9%

New cases:
I am curious: what cytotoxicity at 70.5 h value has been reported for Cc1cccc(N2CCN(CCS(=O)(=O)c3ccc(Br)cc3)CC2)c1C ?
-9.15%

Same question for CC(c1ccc(Cl)cc1)N1CCN(CCNS(C)(=O)=O)CC1 (stereo unspecified) please.
-0.037%

Same question for O=C(CCCc1ccccn1)N1CCOc2ccc(F)cc21 please.
1.36%

Same question for Cc1ccc(CC(=O)NCC(O)c2cc(Cl)cc(Cl)c2)cn1 (stereo unspecified) please.
-3.94%

Same question for COCc1ncc(-c2nccn2CCn2cnnc2)cn1 please.
-2.42%

Same question for O=C(Nc1c(N2CCCC2)cccc1N1CCCC1)c1ccccn1 please.
-12.8%
